# assay_comment: StAR promoter reporter inhibitors, counter-screen for LRH-1 inverse agonist project, cell-based, luminescence, high throughput (AID 651611)
# measurement_conditions: StAR promoter luciferase reporter counterscreen, at 3.6 µM, stronger effect = higher value
So basically: inhibition at 10% or higher? That is Condition met. Lower than 10%? That is Condition not met.

Past entries and their recorded results:
- COc1ccc(C(=O)C(C)Oc2cccc(NC(=O)c3cccc([N+](=O)[O-])c3)c2)cc1 (stereo not drawn): Condition not met
- COc1ccc(CCNC(=O)COC(=O)C23CC4CC(CC(Br)(C4)C2)C3)cc1: Condition not met
- COc1cccc(NC(=O)c2oc3ccccc3c2NC(=O)C2CC2)c1: Condition not met
- CCCCCc1ccc(OCCCC[n+]2ccccc2)c(CCCCC)c1: Condition not met
- Cc1onc(-c2ccccc2Cl)c1C(=O)O/N=C(\N)c1ccc([N+](=O)[O-])o1: Condition met
- C=CC[n+]1c(/C=C2\C=Cc3cc(C)ccc3N2CC)ccc2ccccc21: Condition met
- CCc1ccc(S(=O)(=O)/N=C2\C=C(Nc3ccc(O)cc3)C(=O)c3ccccc32)cc1: Condition met
- CC(=O)N1CCc2c(sc(NC(=O)c3ccc([N+](=O)[O-])o3)c2C(N)=O)C1: Condition met

Entry CC(=O)N1CCN(c2ccc(NC(=O)c3ccc([N+](=O)[O-])o3)cc2Cl)CC1 : is its inhibition no less than 10%? Condition met

# check: inhibition of COc1ccc(C2=NS(=O)(=O)N(C)C(C(=O)N3CCc4ccccc4C3)=C2)cc1OC is greater than or equal to 10% Condition not met

Is inhibition for O=[N+]([O-])c1ccc(N2CCCCC2)nc1N1CCCCC1 at or above 10%? Condition not met

State whether the measured inhibition reaches 10%, counting equality as reaching it, for COc1ccc(CC(=O)Nc2cccc(S(=O)(=O)N3CCCCCC3)c2)cc1OC Condition met

Determine whether this molecule has inhibition no lower than 10%: OC[C@H]1O[C@@H](n2cnc3c(NCc4ccco4)ncnc32)[C@H](O)[C@@H]1O Condition met

---

# assay_comment: VP16 transactivation reporter inhibitors, counter-screen for LRH-1 inverse agonist project, cell-based, luminescence, high throughput (AID 651615)
# measurement_conditions: Gal4-VP16 luciferase reporter cells, at 3.6 µM, stronger effect = higher value
endpoint: inhibition (%)
Your answer is read as %, so omit the unit and give the number.

Consider the following illustrative entries.
* Cc1ccc(OCCC(=O)OCC(=O)Nc2ccc(N3CCOCC3)cc2)cc1 | -7.59
* CCOC(=O)c1cc2c(=Cc3ccc(N(C)C)cc3)c3ccccc3n2[n+]1C | 90.4
* NC(=O)C1CCN(C(=O)COc2ccc3c4c(c(=O)oc3c2)CCC4)CC1 | -10.9

What value of measured inhibition is listed for Cc1ccc(-c2nc(-c3ccccn3)no2)cc1 ? 25

Param item = CCC(NC(=O)Nc1nnc(C(F)(F)F)s1)(C(F)(F)F)C(F)(F)F ; retrieve measured inhibition. 90.5

What does the record list as inhibition for COc1ccc(Nc2ncnc3ccc(Br)cc23)c(OC)c1 ? 30.8

Which inhibition reading was recorded for the compound CCN(CC)S(=O)(=O)c1cc(NC(=O)CCCOc2ccc(C(C)=O)cc2)ccc1C ? 21.1

Param item = Cc1onc(-c2c(F)cccc2Cl)c1C(=O)Nc1cccc2nsnc12 ; retrieve measured inhibition. 27.2
